Reported selectivity ratio values for the following compounds.
- Method Notes: Selectivity index, ratio of IC50 for rat L6 cells to IC50 for chloroquine sensitive Plasmodium falciparum NF54
- Format: toxicity
- Applied Conditions: L6 cells versus Plasmodium falciparum NF54, read-out: Ratio IC50
Hey, just send me the number, nothing else.

* C[C@H]1[C@H](OC(=O)CCC(=O)NCCCN(CCCCN(CCCNC(=O)CCC(=O)O[C@@H]2O[C@@H]3O[C@@]4(C)CC[C@H]5[C@H](C)CC[C@@H]([C@H]2C)[C@@]35OO4)C(=O)CCC(=O)O[C@@H]2O[C@@H]3O[C@@]4(C)CC[C@H]5[C@H](C)CC[C@@H]([C@H]2C)[C@@]35OO4)C(=O)CCC(=O)O[C@@H]2O[C@@H]3O[C@@]4(C)CC[C@H]5[C@H](C)CC[C@@H]([C@H]2C)[C@@]35OO4)O[C@@H]2O[C@@]3(C)CC[C@H]4[C@H](C)CC[C@@H]1[C@@]24OO3 | 37300

Now look at this entry.
**Query** selectivity ratio for C[C@H]1[C@H](OC(=O)CCC(=O)NCCCN(CCCCN(CCCNC(=O)CCC(=O)O[C@@H]2O[C@@H]3O[C@@]4(C)CC[C@H]5[C@H](C)CC[C@@H]([C@H]2C)[C@@]35OO4)C(=O)OC(C)(C)C)C(=O)OC(C)(C)C)O[C@@H]2O[C@@]3(C)CC[C@H]4[C@H](C)CC[C@@H]1[C@@]24OO3 ?
**Result** 30200
